experiment: In vivo antitumor efficacy in nude mice 0-24 hr after intravenous dose of 25 mg/kg expressed as Area under the curve; format: ADME, organism-based; parameters: time < 24 hr, dose 25 mg/kg, route intravenous; conditions: mouse
assay_readout: AUC at 24 h
Enter the number, and then the unit.

Incoming: What value of AUC at 24 h has been reported for the following molecule? O=C(Cc1cc[n+]([O-])cc1)N1CCN(C2c3ccc(Cl)cc3C=Cc3cc(Br)cnc32)CC1 (stereo unspecified)
Outgoing: 11700 ng·h/mL

Incoming: What value of AUC at 24 h has been reported for the following molecule? O=C(Cc1cc[n+]([O-])cc1)N1CCN([C@@H]2c3ccc(Cl)cc3CCc3cccnc32)CC1
Outgoing: 11300 ng·h/mL

Incoming: What value of AUC at 24 h has been reported for the following molecule? O=C(Cc1cc[n+]([O-])cc1)N1CCN([C@@H]2c3ccc(Cl)cc3CCc3cc(Br)cnc32)CC1
Outgoing: 27100 ng·h/mL

Incoming: What value of AUC at 24 h has been reported for the following molecule? CC(C)(C(=O)N1CCN(C2c3ccc(Cl)cc3CCc3cc(Br)cnc32)CC1)c1ccc[n+]([O-])c1 (stereo unspecified)
Outgoing: 25000 ng·h/mL

Incoming: What value of AUC at 24 h has been reported for the following molecule? O=C(Cc1ccc[n+]([O-])c1)N1CCN(C2c3ccc(Cl)cc3CCc3cccnc32)CC1 (stereo unspecified)
Outgoing: 12300 ng·h/mL

Incoming: What value of AUC at 24 h has been reported for the following molecule? O=C(Cc1ccc[n+]([O-])c1)N1CCN(C2c3ccc(Cl)cc3CCc3cc(Br)cnc32)CC1 (stereo unspecified)
Outgoing: 24000 ng·h/mL
